Assay: chemical genetic growth profiling, strain panel (AID 1159580);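 also: tested at 20 µM; growth read once vehicle control cultures reached saturation at 30 °C; 1 = growth at the plate median or of vehicle wells; lower values mean less growth of the strain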
Settings: S. cerevisiae deletion strains, growth OD, locus YMR125W, strain sto1, active compounds read low
Among all 5,500 compounds or so, about 2,000 (36%) were called active. Another 18% or so got no clear call; they are omitted. Some of the results follow.
I'd be grateful if you could share measured normalized growth for these entries.
Just the number.

What normalized growth value was documented for this compound, CC1(C)C(=O)C=C[C@@]2(C)C1C=C[C@]1(C)C2CC[C@@]2(C)[C@H](c3ccoc3)OC(=O)C3OC321 (some centres not stated) ?
0.969

What normalized growth value was documented for this compound, CC1(C)O[C@H]2CC(=O)OC[C@]23[C@H]2CC[C@@]4(C)[C@H](c5ccoc5)OC(=O)[C@H]5O[C@]54[C@]2(C)C(=O)C[C@@H]13 ?
0.985

What normalized growth value was documented for this compound, CC1(C)C(=O)C=C[C@@]2(C)C1CC(=O)[C@]1(C)C2CC[C@@]2(C)[C@H](c3ccoc3)OC(=O)[C@H]3O[C@]321 (some centres not stated) ?
0.973

What normalized growth value was documented for this compound, O=c1c(O)c(-c2ccc(O)c(O)c2)oc2c(O)c(O)cc(O)c12 ?
1.03

What normalized growth value was documented for this compound, CC1(C)C=CC(=O)[C@@]2(C)C1CC(=O)[C@]1(C)C2CC[C@@]2(C)[C@H](c3ccoc3)OC(=O)C3OC321 (some centres not stated) ?
0.995

What normalized growth value was documented for this compound, CC1(C)C(=O)C=C[C@@]2(C)C1C[C@@H](O)[C@]1(C)C2CC[C@@]2(C)[C@H](c3ccoc3)OC(=O)[C@H]3O[C@]321 (some centres not stated) ?
0.984

What normalized growth value was documented for this compound, C=C[C@H]1CN2CC[C@H]1C[C@@H]2[C@@H](OC(=O)OCC)c1ccnc2ccc(OC)cc12 ?
0.963

====

I'd be grateful if you could share measured normalized growth for these entries.
Experiment: chemical genetic growth profiling, strain panel (AID 1159580);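 also: tested at 20 µM; growth read once vehicle control cultures reached saturation at 30 °C; 1 = growth at the plate median or of vehicle wells; lower values mean less growth of the strain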
Details: S. cerevisiae deletion strains, growth OD, locus YJL164C, strain tpk1, active compounds read low
In all, about 5,500 compounds went through this assay and about 2,000 (36%) were called active. Inconclusive results (about 18%) are left out. The list shows a part of the results.

What normalized growth value was documented for this compound, CC1(C)C2CC(=O)[C@]3(C)C(CC[C@@]4(C)[C@H](c5ccoc5)OC(=O)[C@H]5O[C@]543)[C@@]2(C)C(=O)C[C@H]1O (some centres not stated) ?
1 (inactive)

What normalized growth value was documented for this compound, CC1(C)C(=O)C=C[C@@]2(C)C1CC(=O)[C@]1(C)C2CC[C@@]2(C)[C@H](c3ccoc3)OC(=O)[C@H]3O[C@]321 (some centres not stated) ?
0.985 (inactive)

What normalized growth value was documented for this compound, C[C@@H]1O[C@@H](OC[C@H]2OC(Oc3c(-c4ccc(OCCO)c(OCCO)c4)oc4cc(OCCO)cc(O)c4c3=O)[C@H](O)[C@@H](O)[C@@H]2O)[C@H](O)[C@H](O)[C@H]1O (some centres not stated) ?
0.995 (inactive)

What normalized growth value was documented for this compound, COc1cc(O)c2c(=O)c(O)c(-c3ccc(O)c(O)c3)oc2c1 ?
0.723 (active)

What normalized growth value was documented for this compound, COc1cc(OC)c2c(=O)c(OC)c(-c3ccc(OC)c(OC)c3)oc2c1 ?
1.01 (inactive)

What normalized growth value was documented for this compound, CC1(C)C2CC(=O)[C@]3(C)C(CC[C@@]4(C)[C@H](c5ccoc5)OC(=O)C5OC543)[C@@]2(C)[C@@H](O)C[C@H]1O (some centres not stated) ?
1.01 (inactive)

What normalized growth value was documented for this compound, CC(=O)O[C@@H]1CC2C(C)(C)C(=O)C=C[C@]2(C)C2CC[C@@]3(C)[C@H](c4ccoc4)OC(=O)[C@H]4O[C@]43[C@@]21C (some centres not stated) ?
0.995 (inactive)

====

Test: chemical genetic growth profiling, strain panel (AID 1159580);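 also: tested at 20 µM; growth read once vehicle control cultures reached saturation at 30 °C; 1 = growth at the plate median or of vehicle wells; lower values mean less growth of the strain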
Conditions: S. cerevisiae deletion strains, growth OD, locus YHR027C, strain rpn1, active compounds read low
Hit rate of the full screen: of about 5,500 compounds, about 2,000 (36%) were called active. Roughly 18% stayed inconclusive and do not appear here. Some of the results follow.
I'd be grateful if you could share measured normalized growth for these entries.
Just the number.

What normalized growth value was documented for this molecule, COc1cc(OC)c2c(=O)c(O)c(-c3ccc(OC)c(OC)c3)oc2c1 ?
0.695

What normalized growth value was documented for this molecule, O=C(OC1Cc2c(O)cc(O)cc2OC1c1cc(=O)c(O)c2c(O)c(O)cc(C3Oc4cc(O)cc(O)c4CC3O)c2c1)c1cc(O)c(O)c(O)c1 (stereo unspecified) ?
0.812

What normalized growth value was documented for this molecule, Cc1ccccc1OCC(O)CO (stereo unspecified) ?
0.969

What normalized growth value was documented for this molecule, C[C@]12CCC3c4ccc(OS(=O)(=O)O)cc4CCC3C1CC[C@H]2O (stereo partly specified) ?
0.965

What normalized growth value was documented for this molecule, CC(C)c1c(O)ccc2c1CCC1[C@@](C)(CO)CCC[C@]21C (stereo partly specified) ?
1.03

What normalized growth value was documented for this molecule, C=C(C)[C@H]1COc2cc3oc(=O)ccc3cc2O1 ?
0.929

What normalized growth value was documented for this molecule, C[C@@H]1O[C@@H](OC[C@H]2OC(Oc3c(-c4ccc(OCCO)c(OCCO)c4)oc4cc(OCCO)cc(O)c4c3=O)[C@H](O)[C@@H](O)[C@@H]2O)[C@H](O)[C@H](O)[C@H]1O (stereo partly specified) ?
0.958

What normalized growth value was documented for this molecule, OCC(O)C(O)C(O)C(O)C(O)CO (stereo unspecified) ?
1

What normalized growth value was documented for this molecule, CO[C@@]1(NC(=O)C(C(=O)O)c2ccc(O)cc2)C(=O)N2C(C(=O)O)=C(CSc3nnnn3C)CO[C@@H]21 (stereo partly specified) ?
0.964

What normalized growth value was documented for this molecule, NC(=O)NCCCC(N)C(=O)O (stereo unspecified) ?
0.997

What normalized growth value was documented for this molecule, CC(=O)Oc1ccc2c(c1C(C)C)CCC1C(C)(C)CCC[C@]21C (stereo partly specified) ?
1.02

What normalized growth value was documented for this molecule, O=C(O[C@@H]1Cc2c(O)cc(O)cc2O[C@@H]1c1cc(O)c(=O)c2c(O)c(O)cc([C@H]3Oc4cc(O)cc(O)c4C[C@H]3O)c2c1)c1cc(O)c(O)c(O)c1 ?
0.191

What normalized growth value was documented for this molecule, CC/C(=C(/CC)c1ccc(O)cc1)c1ccc(O)cc1 ?
0.98

What normalized growth value was documented for this molecule, COc1ccc2c(c1)CCC1C2CCC2(C)C1C[C@@H](O)C2O (stereo partly specified) ?
1.01

What normalized growth value was documented for this molecule, COc1ccc2c(c1)CCC1C2CC[C@@]2(C)C1CC[C@@H]2O (stereo partly specified) ?
0.977

What normalized growth value was documented for this molecule, O=C1C=C2C(=CCOC2O)O1 (stereo unspecified) ?
0.71

What normalized growth value was documented for this molecule, CCCCCCC(C)OC(=O)COc1ccc(Cl)cc1Cl (stereo unspecified) ?
0.996

What normalized growth value was documented for this molecule, C[C@]12CCC3c4ccc(O)cc4CCC3C1CC[C@@H]2O (stereo partly specified) ?
1.01

What normalized growth value was documented for this molecule, OC1CC2CCCC(C1)N2Cc1ccccc1 (stereo unspecified) ?
1

What normalized growth value was documented for this molecule, CCC(N)C(O)c1ccc(O)c(O)c1 (stereo unspecified) ?
0.985

What normalized growth value was documented for this molecule, O=C(Cc1cccs1)NC1C(=O)N2C(C(=O)[O-])=C(C[n+]3ccccc3)CSC12 (stereo unspecified) ?
0.991

====

I'd be grateful if you could share measured normalized growth for these entries.
Assay: chemical genetic growth profiling, strain panel (AID 1159580);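 also: tested at 20 µM; growth read once vehicle control cultures reached saturation at 30 °C; 1 = growth at the plate median or of vehicle wells; lower values mean less growth of the strain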
Settings: S. cerevisiae deletion strains, growth OD, locus YEL061C, strain CIN8, active compounds read low
The whole screen tested about 5,500 compounds, of which about 2,000 (36%) were called active. Another 18% or so got no clear call; they are omitted. The list shows a part of the results.
Just the number.

What normalized growth value was documented for this compound, O=C1CC(Nc2ccccc2)C=C1Nc1ccccc1 (stereo unspecified) ?
1.01

What normalized growth value was documented for this compound, CCC(N)C(O)c1ccc(O)c(O)c1 (stereo unspecified) ?
1.01

What normalized growth value was documented for this compound, NC(=O)NCC(N)C(=O)O (stereo unspecified) ?
1.01

What normalized growth value was documented for this compound, CCCC(C)(COC(N)=O)COC(=O)NC(C)C (stereo unspecified) ?
0.982

What normalized growth value was documented for this compound, CC1CCC2(OC1)OC1CC3C4CC[C@H]5C[C@@H](O)CC[C@]5(C)C4CC(=O)[C@]3(C)C1C2C (stereo partly specified) ?
1.01

What normalized growth value was documented for this compound, CCC(c1ccc(O)cc1)C(CC)c1ccc(O)cc1 (stereo unspecified) ?
1

What normalized growth value was documented for this compound, CCOC(=O)/C(C#N)=C/c1ccc(Br)cc1 ?
0.754

What normalized growth value was documented for this compound, CCN1C[C@]2(C)CC[C@H](OC)[C@]34C2[C@H](O)[C@]2(OCO[C@@]25C[C@H](OC)[C@H]2C[C@]3(O)C5[C@H]2O)C14 ?
0.994

What normalized growth value was documented for this compound, CO[C@@]1(NC(=O)C(C(=O)O)c2ccc(O)cc2)C(=O)N2C(C(=O)O)=C(CSc3nnnn3C)CO[C@@H]21 (stereo partly specified) ?
1.01

What normalized growth value was documented for this compound, O=C1NC(=O)/C(=C/c2ccc(OS(=O)(=O)c3ccc(Cl)cc3)cc2)N1 ?
1.01

What normalized growth value was documented for this compound, CC12CCC3c4ccc(OCc5ccccc5)cc4CCC3C1C[C@@H](O)[C@@H]2O (stereo partly specified) ?
0.0518

What normalized growth value was documented for this compound, COC(=O)C[C@H]1C(C)(C)C2(Cl)O[C@@]34CC2C(=O)[C@]1(C)C3CC[C@]1(C)C4=CC(=O)O[C@H]1c1ccoc1 (stereo partly specified) ?
1

What normalized growth value was documented for this compound, S=c1nccc(-c2ccc(Cl)cc2)[nH]1 ?
0.904

What normalized growth value was documented for this compound, CC(C)(C)NCC(O)c1cc(Cl)c(N)c(Cl)c1 (stereo unspecified) ?
1.01

What normalized growth value was documented for this compound, CC(=O)OC1CN2CCC1CC2 (stereo unspecified) ?
0.995

What normalized growth value was documented for this compound, C[C@]12CCC3c4ccc(O)cc4CCC3C1C[C@@H](O)[C@@H]2O (stereo partly specified) ?
0.997

What normalized growth value was documented for this compound, CCN(Cc1ccncc1)C(=O)C(CO)c1ccccc1 (stereo unspecified) ?
0.995

What normalized growth value was documented for this compound, CN(C)C=Nc1nnc(SCc2ccc(C(=O)Oc3ccc(F)cc3F)cc2)s1 ?
1.01

What normalized growth value was documented for this compound, O=c1c(O)c(-c2ccc(O)c(O)c2)oc2cc(O)cc(O)c12 ?
0.946

What normalized growth value was documented for this compound, CCOC(=O)c1sc(SC(C)C)c2c1CCCC2=O ?
0.795

What normalized growth value was documented for this compound, COc1ccc2c(c1)CCC1C2CCC2(C)C1C[C@@H](O)C2O (stereo partly specified) ?
1.01

What normalized growth value was documented for this compound, Cc1ccc(/C=C2\CCc3ccccc3C2=O)o1 ?
0.531

What normalized growth value was documented for this compound, O=C(Cc1cccs1)NC1C(=O)N2C(C(=O)[O-])=C(C[n+]3ccccc3)CSC12 (stereo unspecified) ?
1.01

What normalized growth value was documented for this compound, Cn1[nH]c(=O)cc1C(=O)NN ?
1.03

What normalized growth value was documented for this compound, CC(=O)OC(C)C[N+](C)(C)C (stereo unspecified) ?
1.01

What normalized growth value was documented for this compound, CN[C@@H]1C(O)[C@@H](O[C@@H]2[C@@H](O)[C@H](O[C@H]3OC(CN)=CC[C@H]3N)[C@@H](N)C[C@H]2N)OC[C@]1(C)O (stereo partly specified) ?
1.07

What normalized growth value was documented for this compound, CCCCOc1cc(C(=O)NCCN(CC)CC)c2ccccc2n1 ?
1

What normalized growth value was documented for this compound, CCc1cccc(CC)c1N(COC)C(=O)CCl ?
1

What normalized growth value was documented for this compound, CSc1cccc(NC(=S)N=CN(C)C)c1 ?
0.997

What normalized growth value was documented for this compound, COc1ccc2c3c1OC1C(O)CC=C4C(C2)N(C)CCC431 (stereo unspecified) ?
1.01

What normalized growth value was documented for this compound, CC(C)(C)NCC(O)c1cc(O)cc(O)c1 (stereo unspecified) ?
0.994

What normalized growth value was documented for this compound, CC(C)[N+](C)(CCC(C(N)=O)(c1ccccc1)c1ccccc1)C(C)C ?
0.999

What normalized growth value was documented for this compound, CC(=O)O[C@@H]1CC2C(C)(C)C(=O)C=C[C@]2(C)C2CC[C@@]3(C)[C@H](c4ccoc4)OC(=O)[C@H]4O[C@]43[C@@]21C (stereo partly specified) ?
0.996

What normalized growth value was documented for this compound, CCCCCCCCCCCCCCCCCC(=O)OC(CC(=O)O)C[N+](C)(C)C (stereo unspecified) ?
0.44

What normalized growth value was documented for this compound, CC[n+]1c(-c2ccccc2)c2cc(N)ccc2c2ccc(N)cc21 ?
0.766

What normalized growth value was documented for this compound, Cc1onc(-c2ccc(Cl)cc2)c1-c1ccnn1C(=O)NC(C)C ?
0.94

What normalized growth value was documented for this compound, CCCCC1C(=O)N(c2ccccc2)N(c2ccc(O)cc2)C1=O (stereo unspecified) ?
0.987

What normalized growth value was documented for this compound, CC1O[C@@H](Oc2c(-c3ccc(O)c(O)c3)oc3cc(O)cc(O)c3c2=O)[C@H](O)[C@H](O)[C@H]1O (stereo partly specified) ?
0.996

What normalized growth value was documented for this compound, O=C1C=C2C(=CCOC2O)O1 (stereo unspecified) ?
0.848

What normalized growth value was documented for this compound, Cc1[nH]ccc2c1[nH]c1cc(=O)ccc12 ?
1.01

What normalized growth value was documented for this compound, COc1cccc2c(C)cc(=O)[nH]c12 ?
0.963

What normalized growth value was documented for this compound, CC(C)C1COc2cc3oc(=O)ccc3cc2O1 (stereo unspecified) ?
0.17

What normalized growth value was documented for this compound, COc1ccc2c(c1)CCC1C2CC[C@@]2(C)C1CC[C@@H]2O (stereo partly specified) ?
0.825

What normalized growth value was documented for this compound, Cc1cc(C2CCCCC2)n(O)c(=O)c1 ?
0.0514

What normalized growth value was documented for this compound, COc1ccc(CCNc2ccc(C(F)(F)F)cc2N)cc1OC ?
1.02

What normalized growth value was documented for this compound, O=C(O)C1=C[C@@H](O)[C@@H](O)[C@H](O)C1 ?
1.01
